System: Aspergillus niger
measurementProtocol: Antifungal activity against Aspergillus niger NCIM 545 after 48 hrs by agar cup plate method
Assay type: functional
observedProperty: diameter of the inhibition zone (DIZ) (mm)
Your answer is read as mm, so omit the unit and give the number.

Recorded result, COC1=CC(=O)C[C@@H](C)[C@]12Oc1c(Cl)c(OC)cc(OC)c1C2=O [GRISEOFULVIN] , diameter of the inhibition zone (DIZ): 16.6

Recorded result, `CCOc1ccc2nc(Cl)c(Cn3cc(-c4ccccc4)nn3)cc2c1` , diameter of the inhibition zone (DIZ): 12.8

Recorded result, `Cc1cccc2cc(Cn3cc(-c4ccccc4)nn3)c(Cl)nc12` , diameter of the inhibition zone (DIZ): 12.7

Recorded result, `Clc1nc2ccccc2cc1Cn1cc(-c2ccccc2)nn1` , diameter of the inhibition zone (DIZ): 10

Recorded result, `Cc1ccc2nc(Cl)c(Cn3cc(-c4ccccc4)nn3)cc2c1` , diameter of the inhibition zone (DIZ): 16.1

Recorded result, `COc1ccc2nc(Cl)c(Cn3cc(-c4ccccc4)nn3)cc2c1` , diameter of the inhibition zone (DIZ): 16.3

----------
Tested on: Candida albicans
measurementProtocol: Antifungal activity against Candida albicans MTCC 277 after 48 hrs by agar cup plate method
Format: functional
Hi there, I'd appreciate the recorded diameter of the inhibition zone (DIZ) for every entry that follows.
Write the quantity with the unit trailing the number.

Recorded result, `COc1ccc2nc(Cl)c(Cn3cc(-c4ccccc4)nn3)cc2c1` , diameter of the inhibition zone (DIZ): 15.7 mm

Recorded result, `Cc1cccc2cc(Cn3cc(-c4ccccc4)nn3)c(Cl)nc12` , diameter of the inhibition zone (DIZ): 13.4 mm

Recorded result, `Cc1ccc2cc(Cn3cc(-c4ccccc4)nn3)c(Cl)nc2c1` , diameter of the inhibition zone (DIZ): 16.4 mm

Recorded result, `COC1=CC(=O)C[C@@H](C)[C@]12Oc1c(Cl)c(OC)cc(OC)c1C2=O` , diameter of the inhibition zone (DIZ): 16.9 mm

Recorded result, `Clc1nc2ccccc2cc1Cn1cc(-c2ccccc2)nn1` , diameter of the inhibition zone (DIZ): 16 mm

Recorded result, `Cc1ccc2nc(Cl)c(Cn3cc(-c4ccccc4)nn3)cc2c1` , diameter of the inhibition zone (DIZ): 14.7 mm

Recorded result, `CCOc1ccc2nc(Cl)c(Cn3cc(-c4ccccc4)nn3)cc2c1` , diameter of the inhibition zone (DIZ): 16.5 mm

Recorded result, `COc1ccc2cc(Cn3cc(-c4ccccc4)nn3)c(Cl)nc2c1` , diameter of the inhibition zone (DIZ): 14 mm

Recorded result, `CCc1cccc2cc(Cn3cc(-c4ccccc4)nn3)c(Cl)nc12` , diameter of the inhibition zone (DIZ): 14 mm

Hello, the source for this data is ChEMBL document CHEMBL1177890, in case you need it.
